Data provenance is patent US20240190841A1.

molecular target: BCL6 (Homo sapiens); construct: endogenous in cells; host or cells: T47D breast cancer epithelial cells; test: Immunofluorescence high content imaging of BCL6 degradation in T47D cells; type: cell-based; details: T47D breast cancer epithelial cells, 3 days incubation
Could you please report measured Dmax for the items listed next?

Lookup: Please report Dmax for the following molecule: CNC(=O)COc1cc2cc(Nc3nc(N4CCC(O[C@H]5C[C@H](N6CCN(c7ccc8c(c7)n(C(C)C)c(=O)n8C7CCC(=O)NC7=O)CC6)C5)CC4)ncc3Cl)ccc2n(C(C)C)c1=O (some centres unmarked)
Found: ≥ 70%

Lookup: Please report Dmax for the following molecule: CNC(=O)COc1cc2cc(Nc3nc(N4CCC(O[C@H]5C[C@H](N6CCN(c7ccc8c(c7)n(C)c(=O)n8C7CCC(=O)NC7=O)[C@@H](C)C6)C5)CC4)ncc3Cl)ccc2n(C(C)C)c1=O (some centres unmarked)
Found: ≥ 70%

Lookup: Please report Dmax for the following molecule: CNC(=O)COc1cc2cc(Nc3nc(N4CCC(O[C@H]5C[C@H](N6CCN(c7ccc8nn(C9CCC(=O)NC9=O)cc8c7)CC6)C5)CC4)ncc3Cl)ccc2n(C(C)C)c1=O (some centres unmarked)
Found: 50 to 70%

Lookup: Please report Dmax for the following molecule: CNC(=O)COc1cc2cc(Nc3nc(N4CCC(O[C@H]5C[C@H](N6CCN(c7ccc8c(c7C)n(C)c(=O)n8C7CCC(=O)NC7=O)CC6)C5)CC4)ncc3Cl)ccc2n(C(C)C)c1=O (some centres unmarked)
Found: ≥ 70%

Lookup: Please report Dmax for the following molecule: CNC(=O)COc1cc2cc(Nc3nc(N4CCC(O[C@H]5C[C@H](N6CCN(c7cc8c(cc7OC)n(C7CCC(=O)NC7=O)c(=O)n8C)CC6)C5)CC4)ncc3Cl)ccc2n(C(C)C)c1=O (some centres unmarked)
Found: 50 to 70%

---

target: BCL6 (Homo sapiens, UniProt P41182); construct: endogenous in cells; host or cells: T47D breast cancer epithelial cells; assay: Immunofluorescence high content imaging of BCL6 degradation in T47D cells; assay type: cell-based; conditions: T47D breast cancer epithelial cells, 3 days incubation
measured_parameter: Dmax

Lookup: Please report Dmax for the following molecule: CNC(=O)COc1cc2cc(Nc3nc(N4CCC(O[C@H]5C[C@H](N6CCN(c7cnc8c(c7)n(C)c(=O)n8C7CCC(=O)NC7=O)CC6)C5)CC4)ncc3Cl)ccc2n(C(C)C)c1=O (some centres unmarked) [Compound 16]
Found: 50 to 70%

Lookup: Please report Dmax for the following molecule: CNC(=O)COc1cc2cc(Nc3nc(N4CCC(O[C@H]5C[C@H](N6CCN(c7ccc8c(cnn8C8CCC(=O)NC8=O)c7)CC6)C5)CC4)ncc3Cl)ccc2n(C(C)C)c1=O (some centres unmarked) [Compound 21]
Found: ≥ 70%

Lookup: Please report Dmax for the following molecule: CCn1c(=O)n(C2CCC(=O)NC2=O)c2ccc(N3CCN([C@H]4C[C@H](OC5CCN(c6ncc(Cl)c(Nc7ccc8c(c7)cc(OCC(=O)NC)c(=O)n8C(C)C)n6)CC5)C4)CC3)cc21 (some centres unmarked) [Compound 7]
Found: ≥ 70%

Lookup: Please report Dmax for the following molecule: CNC(=O)COc1cc2cc(Nc3nc(N4CCC(O[C@H]5C[C@H](N6CCN(c7cc(F)c8c(c7)n(C(C)C)c(=O)n8C7CCC(=O)NC7=O)CC6)C5)CC4)ncc3Cl)ccc2n(C(C)C)c1=O (some centres unmarked) [Compound 29]
Found: ≥ 70%

Lookup: Please report Dmax for the following molecule: CNC(=O)COc1cc2cc(Nc3nc(N4CCC(O[C@H]5C[C@H](N6CCN(c7cc(F)c8c(c7F)n(C)c(=O)n8C7CCC(=O)NC7=O)CC6)C5)CC4)ncc3Cl)ccc2n(C(C)C)c1=O (some centres unmarked) [Compound 27]
Found: ≥ 70%
